Test Target: Human Mer (Homo sapiens, UniProt Q12866)
Construct: Human Mer (residues R557-E882 with H628Q and R794A, 0.7 nM)
Sequence (Q12866 557-882 limits assumed): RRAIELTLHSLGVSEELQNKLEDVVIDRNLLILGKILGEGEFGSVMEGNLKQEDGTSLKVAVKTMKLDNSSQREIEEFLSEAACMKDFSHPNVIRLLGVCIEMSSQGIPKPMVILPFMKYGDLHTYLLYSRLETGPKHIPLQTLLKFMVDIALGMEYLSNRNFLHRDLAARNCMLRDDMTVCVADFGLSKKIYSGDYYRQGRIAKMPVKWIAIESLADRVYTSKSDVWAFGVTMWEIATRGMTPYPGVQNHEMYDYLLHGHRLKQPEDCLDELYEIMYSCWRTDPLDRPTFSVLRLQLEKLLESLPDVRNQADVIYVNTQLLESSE
Procedure Summary: Human Mer kinase assay (33P-phosphoryl transfer radiometric, KinaseProfiler)
Particulars: biochemical activity; 10 μM ATP
pIC50: −log10 of the molar value.
Measured Quantity: pIC50

Molecule	Test Target	Observed Value
Cn1ncc(-c2ccc3c(Oc4ccc(NC(=O)C5(C(=O)Nc6ccc(F)cc6)CC5)cc4)ccnc3c2)n1	Human Mer (Homo sapiens, UniProt Q12866)	≥ 8.00
O=C(Nc1ccc(F)cc1)C1(C(=O)Nc2ccc(Oc3ccnc4cc(C5CCNC5)ccc34)cc2)CC1 (centres unmarked)	Human Mer (Homo sapiens, UniProt Q12866)	≥ 8.00
Cn1cc(-c2ccc3c(Oc4ccc(NC(=O)C5(C(=O)N6CCc7cc(F)ccc76)CC5)cc4)ccnc3c2)cn1	Human Mer (Homo sapiens, UniProt Q12866)	7.00 to 8.00

Looking for the measured pIC50 of `O=C(Nc1ccc(F)cc1)C1(C(=O)Nc2ccc(Oc3ccnc4cc(-c5cnn(C6CC6)c5)ccc34)cc2)CC1` , can you help? ≥ 8.00

Looking for the measured pIC50 of `Cn1nccc1-c1ccc2c(Oc3ccc(NC(=O)C4(C(=O)Nc5ccc(F)cc5)CC4)cc3)ccnc2c1` , can you help? ≥ 8.00
